Assay: yeast display, Sf9 membrane polyspecificity reagent, FACS + sequencing; frameworks hold sequencing errors
parameter: polyreactivity (PSR sort gate)

seq string	parameter	recorded value
QVQLVESGGGLVQAGGSLLLSCAASGSIFRVYAMGGYRQAPGKESELVAAISVSGSSTYYADSVKGRFTISRDNAKNTVYFQMNCLKREDTAVYYCATKQRRGYWGYITAYARYYWGQGTQVSVSS	polyreactivity (PSR sort gate)	high polyreactivity
QVQLVESGGGLVQAGGSLRLSCAASGITFHKYAMGWYRQAPGKERELVAAISSGGGTYYADSVKGRFTISRDNAKNTVYLQMNSLKPEDTAVYYCNADIEWLWVRYDYWGQGTQVTVSS	polyreactivity (PSR sort gate)	high polyreactivity

----------
Experiment: yeast display, Sf9 membrane polyspecificity reagent, FACS + sequencing; frameworks hold sequencing errors
parameter: polyreactivity (PSR sort gate)

Reference set, count: 4
seq string	polyreactivity (PSR sort gate)
QVQLGESGGGLVQAGCSLRLSCAASGSIFIAYDMGWYRQAPGKERELVAAISIIDGSTYYADSVKRRFTISRDNAKNTVYLQMNSLKPEDTAVYYCSTRVFYLYDYWGQGTQVTVSS	low polyreactivity
QVQLVESGGGLVQAGGSLRLSCAASGSTFRTYVMGWYRQAPGKERELVAAITRSGVSTSYADSVKGRFTISRDNAKNTVYLQMNSLKPEDTAVYYCAATKYDDGYSWTHYYYWGQGTQVTVSS	high polyreactivity
QVQLVESGGGLVQAGGSLRLSCAASGRILPLYAMGWSRQAPGKERELVATMILDGDSTYYADSVKGRFTISRDNAKNTVYLQMNSQKPEDTAVYYCNDDYTPWGRGYPYDYWGQGSQVTVSS	low polyreactivity
QVQLVESGGGLVQAGGSLRLSCAASGSTFEDYVMGWYRQAPGKERELVAAITSGDNTKYADSVKGRFTISRDNAKNTVYLQMNSLKPEDTAVYYCNADFPDVRSEYDYWGQGTQVTVSS	high polyreactivity

Next:
// returns reported polyreactivity (PSR sort gate) for input `QVQLVESGGGLVQAGGSLRLSCAASGSIFDAYAMGWYRQAPGKERELVAAISLSDTSTYYADSVKGRFTISRDNAKNTVYLQMNSLKPEDTAVYYCAAEFYIAYIEYDYWGQGTQVTVSS`
high polyreactivity

----------
Assay: yeast display, Sf9 membrane polyspecificity reagent, FACS + sequencing; frameworks hold sequencing errors
parameter: polyreactivity (PSR sort gate)

Reference set, count: 4
seq string	polyreactivity (PSR sort gate)
QVQLVESGGGLVQAGGSLRLTCAASGGIFGINAMRWYRQAPGKERELVAAITSGDSTNYADSVKGRFTISRDNAKNTVYLQMNSLKPEDTAVYYCNADPDTYVSTITHDSWGQGTQVTVSS	low polyreactivity
QVQLVESGGGLVQPGGSLRLSCAASGRIFGYYVMGWYRQAPRKERELVAAITGGGGSTYYADSVKGRFTISRDNEKNTVFLQMNSLKPEDTAVYYCAADLEYTNYDYDYWGQGTQVTVSS	high polyreactivity
QVQLVESGGGLVQAGGSLRLSCAASGSIFKRNAMGWYRQAPGKERELVASISSGGSTHYADSVKGRFTISRDNAKNTVYLQMNSLKPEDTAVYYCAADSSWYVLYGSYYRSGLDYWGQGTQVTVSS	low polyreactivity
QVQLVESGGGLVQAGGSLRLICAASGRTFKQYAMGWSRQAPGTERELVAAITSSGGSTYYADSVKGRFTISRDNAKNTVYLQMNSLKPEDTAVYYCAAATRGSGRRYDYWGQGTQVTVSS	high polyreactivity

// returns reported polyreactivity (PSR sort gate) for input `QVQLVESGGGLVQAGGSLRLSCAASGITFQRYAMGWYRQAPGKERELVAAITRGGSTNYADSVKGRFTISRDNAKNTVYLQMNSLKPEDTAVYYCAAGARYGYGYWGQGTQVTVSS`
high polyreactivity
